system: Saccharomyces cerevisiae; assay: protein stability index of tFT-peptide fusion (C-terminal peptide) (PSI (0-1 scale)); higher = more stable (slower turnover); settings: genetic background: wild type; temperature: 30 C;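 note: PSI is a weighted mean of sequencing reads over stability bins, variants kept only with over 10 reads, mCherry proximal and sfGFP distal, peptide attached via GGGS linker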
Consider the following sequences and their measured protein stability index readings.
Quantity Name: protein stability index

primary_sequence=EIRGGYMGEWRE value=0.691
primary_sequence=AARPLGLPSASG value=0.711
primary_sequence=IVALDGWPGVEA value=0.723
primary_sequence=DLIKCPTNMVRL value=0.646
primary_sequence=GCGVGVGASVGR value=0.636
primary_sequence=SFLRHSCFPSVP value=0.736
primary_sequence=STSLLTRTSSKL value=0.792
primary_sequence=PLASRPHPLPPP value=0.671
primary_sequence=GTETKIRNKHVE value=0.645
primary_sequence=ISPCCGVPWLLR value=0.708
primary_sequence=PSFPLLPPPSLS value=0.691
primary_sequence=DSQGSVHPEAQE value=0.723
primary_sequence=KRSVSIESMTQA value=0.699
primary_sequence=PDVPVTCYAASH value=0.661
primary_sequence=ALVWYSLSIIVN value=0.205
primary_sequence=VLLLSPPLRPCP value=0.69
primary_sequence=AEGCHIRVHWGV value=0.726
primary_sequence=SPRFYSFRPSPP value=0.695
primary_sequence=EANEENNSSKRD value=0.686
